- target under test: T1, Mouse ROR1 (mouse, UniProt Q9Z139 30-937)
- T1 construct: also called mROR1; K562/mouse ROR1
- T1 sequence (Q9Z139 30-937): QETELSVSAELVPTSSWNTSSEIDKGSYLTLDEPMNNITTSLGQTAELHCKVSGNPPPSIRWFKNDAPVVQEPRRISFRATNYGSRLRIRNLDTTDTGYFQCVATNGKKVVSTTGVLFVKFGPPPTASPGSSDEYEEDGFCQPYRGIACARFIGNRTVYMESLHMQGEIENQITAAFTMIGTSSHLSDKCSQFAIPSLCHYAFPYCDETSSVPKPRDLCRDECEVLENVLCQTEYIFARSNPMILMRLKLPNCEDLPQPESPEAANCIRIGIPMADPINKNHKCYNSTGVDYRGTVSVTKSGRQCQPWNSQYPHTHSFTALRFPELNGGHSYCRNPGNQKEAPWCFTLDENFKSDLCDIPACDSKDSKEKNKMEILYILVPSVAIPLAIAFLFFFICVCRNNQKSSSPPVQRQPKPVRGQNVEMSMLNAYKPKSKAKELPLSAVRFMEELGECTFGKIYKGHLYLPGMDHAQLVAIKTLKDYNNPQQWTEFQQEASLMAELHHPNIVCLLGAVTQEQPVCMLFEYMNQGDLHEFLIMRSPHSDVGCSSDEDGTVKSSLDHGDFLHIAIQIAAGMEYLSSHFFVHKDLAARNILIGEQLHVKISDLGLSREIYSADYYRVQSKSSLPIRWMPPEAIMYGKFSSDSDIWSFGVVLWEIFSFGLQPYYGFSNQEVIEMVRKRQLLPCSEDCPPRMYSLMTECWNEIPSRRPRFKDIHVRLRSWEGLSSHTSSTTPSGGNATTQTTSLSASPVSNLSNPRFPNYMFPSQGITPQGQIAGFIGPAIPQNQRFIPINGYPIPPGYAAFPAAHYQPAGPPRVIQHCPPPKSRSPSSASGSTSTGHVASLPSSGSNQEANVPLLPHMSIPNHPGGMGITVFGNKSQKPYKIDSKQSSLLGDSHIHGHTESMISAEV
- test protocol: inferred from IFN-gamma release of CAR T cells on K562/mouse ROR1 cells
parameter measured: binding result

binder | experimental value
CAR containing Clone 83B scFv (VH-VL) (other, Chimeric antigen receptor expressed on primary human CD8+ T cells; tEGFR marker is split off by T2A; also called 83B CAR; not shown: Ig-derived hinge only spacer, human CD28-derived transmembrane domain, human 4-1BB-derived intracellular signaling domai) QVQLVQSGAEVKKPGASVKVSCKASGYTFTSYYMHWVRQAPGQGLEWMGIINPNGGSTSYAQKFQGRVTMTRDTSTSTVYMELSSLRSEDTAVYYCARDSSYDAFDIWGQGTMVTVSSGGGGSGGGGSGGGGSAIQLTQSPSTLSASVGDRVTITCQASQDISNYLNWYQQKPGKAPKLLINDASYLETGVPSRFSGSGSGTDFTLTISSLQPEDIATYYCQQYESLPYTFGQGTKLEIK | binds
CAR containing Clone V353 VH-only antigen-binding domain (other, Chimeric antigen receptor expressed on primary human CD8+ T cells; tEGFR marker is split off by T2A; also called V353 CAR; not shown: Ig-derived hinge only spacer, human CD28-derived transmembrane domain, human 4-1BB-derived intracellular signaling domai) QVTLKESGGGLVKPGGSLRLSCAASGFTFSNAWMSWVRQAPGKGLEWVGRIKSKTDGGTTDYAAPVKGRFTISRDDSKNTLYLQMNSLKTEDTAVYYCARDFGRWGYYFDYWSQGTLVTVSS | binds
CAR containing Clone V70 VH-only antigen-binding domain (other, Chimeric antigen receptor expressed on primary human CD8+ T cells; tEGFR marker is split off by T2A; also called V70 CAR; not shown: Ig-derived hinge only spacer, human CD28-derived transmembrane domain, human 4-1BB-derived intracellular signaling domai) QVQLLESGGGLVQPGRSLRLSCTASGFTFGDYAMSWVRQAPGKGLEWVSSISGSGRSTDHADYVKGRFTISRDNSKNTVYLQMNRLRAEDTAVYYCAKVSNYEYYFDYWAQGTLVTVSS | binds
CAR containing Clone 48 scFv (VH-VL) (other, Chimeric antigen receptor expressed on primary human CD8+ T cells; tEGFR marker is split off by T2A; also called 48 CAR; not shown: Ig-derived hinge only spacer, human CD28-derived transmembrane domain, human 4-1BB-derived intracellular signaling domai) QVTLKESGGGLVKPGGSLRLSCAASGFTFSNAWMSWVRQAPGKGLEWVGRIKSKTDGGTTDYAAPVKGRFTISRDDSKNTLYLQMNSLKTEDTAVYYCARDFGRWSYYFDYWSQGTLVTVSSGGGGSGGGGSGGGGSQSVLTQPSSVSGTPGQRVTISCSGSSSNIGSNYVYWYQQLPGTAPKLLIYRNNQRPSGVPDRFSGSKSGTSASLAISGLRSEDEADYYCAAWDDSLSGVVFGGGTKLTVL | binds

Dear colleague, I am looking for the recorded binding result of the following binder: CAR containing Clone 298 scFv (VH-VL) (other, Chimeric antigen receptor expressed on primary human CD8+ T cells; tEGFR marker is split off by T2A; also called 298 CAR; not shown: Ig-derived hinge only spacer, human CD28-derived transmembrane domain, human 4-1BB-derived intracellular signaling domai) EVQLVESGGGLVQPGRSLRLSCTASGFTFGDYAMSWVRQAPGKGLEWVSSISGSGRSTDHADYVKGRFTISRDNSKNTVYLQMNRLRAEDTAVYYCAKVSNYEYYFDYWAQGTLVTVSSGGGGSGGGGSGGGGSEIVLTQSPSVSVAPGQTARITCGGSNIGSESVNWYQWKSGQVPVLVVSDTTDRPSGIPGRFTGTRSGTTATLTISGVEAGDEADYHCQVWDDTGDHPVFGGGTKLTVL
binds
